Parameter: TGI. Scope: all listed entries.
- System: HCT-15 colon
- assay_remarks: NCI tumour cell line growth inhibition, 48 h

Solved cases below.
ON=C(CC(O)(C(F)(F)Cl)C(F)(F)Cl)CC(O)(C(F)(F)Cl)C(F)(F)Cl	> 10 µM
c1ccc([I+]c2ccccc2)cc1	> 100 µM
Cc1ccc(C(=O)N/N=C(\N=Nc2ccc(C(=O)O)cc2)c2ccc(N(CCC#N)CCC#N)cc2C)cc1	> 100 µM
COC1=C(C)C(=O)c2c(cc3c(c2O)C(C)(CCC=C(C)C)C(C)O3)C1=O (stereo unspecified)	> 57.2 µM

Please give the documented TGI of CC1=C(C(=O)N[C@@H](CC(C)C)C(=O)O)N2C(=O)[C@@H](NC(=O)C(N)c3ccccc3)[C@H]2SC1 (stereo partly specified)
> 100 µM

Using the record for N#Cc1c(O)c(/C=N/c2ncccn2)c(=O)n2c1[nH]c1ccccc12 , state its measured TGI.
> 100 µM

====

- System: SF-539 CNS
- assay_remarks: NCI tumour cell line growth inhibition, 48 h
Reported TGI values for a set of compounds

Example results:
NC(=O)c1ccc(-c2nc(-c3ccc4c(c3)OCO4)c(-c3ccccn3)[nH]2)cc1	> 100 µM
CCOC1CC(C)N(C(=O)c2ccccc2)O1 (stereo unspecified)	> 100 µM
CC1(C)N=C(C2CCCN2C(=O)OCc2ccccc2)OC1=O (stereo unspecified)	> 100 µM
CSc1nc2c(c(=O)[nH]1)N=C(c1ccccc1)CC(c1ccccc1)N2 (stereo unspecified)	66.3 µM
CC1C(C#N)(C#N)C(C#N)=C(N)C1(Cl)[N+](=O)[O-] (stereo unspecified)	25.2 µM
CN(C)CC1CCC2=C(C1=O)C(c1ccc(Cl)c(Cl)c1)C1=C(CCC(CN(C)C)C1=O)O2 (stereo unspecified)	18.2 µM
CC(=O)OC(Cc1c(O)c2c(C)cccc2oc1=O)C(C)(C)O (stereo unspecified)	> 100 µM
O=C(NC(=Nc1ccccc1)SCCSC(=Nc1ccccc1)NC(=O)c1cccs1)c1cccs1	> 100 µM
COc1ccc(/C=C2\C[C@H]3[C@@H]4CCC5=CC(=O)CC[C@]5(C)[C@H]4CC[C@]3(C)C2=O)cc1OC	> 100 µM
Cc1ccc(C(=O)N/N=C(\N=Nc2ccc(C(=O)O)cc2)c2ccc(N(CCC#N)CCC#N)cc2C)cc1	> 100 µM

Give TGI for the following compound: O=[N+]([O-])c1ccc(N=Nc2ccc(O)c3ccccc23)cc1
> 100 µM

Retrieve TGI measured for CCN1CN(c2ccccc2)C2(CCN(CC(CC3OCCO3)c3ccc(F)cc3)CC2)C1=O (stereo unspecified) and print it.
25.5 µM

Read off the recorded TGI for CC(=O)Oc1ccc2c3c1O[C@H]1[C@H](O)CC[C@@]4(O)[C@@H](C2)N(C)CC[C@]314
> 100 µM

Specify TGI for ClCCCCCc1c2nc(c(CCCCCCl)c3ccc([nH]3)c(CCCCCCl)c3ccc([nH]3)c(CCCCCCl)c3nc1C=C3)C=C2 and stop.
> 100 µM

State its TGI for this compound: Cc1n(Cc2ccccc2)nc2sc(N)n[n+]12
> 100 µM

Using known records, supply TGI for Cc1nn(C)c(COc2ccc(N3CCN(S(=O)(=O)N(C)C)CC3)cc2)c1-c1cccc2c(CCCOc3cccc4ccccc34)c(C(=O)O)n(CCN3CCOCC3)c12
6.17 µM

====

- Test system: TK-10 renal
- assay_remarks: NCI tumour cell line growth inhibition, 48 h
Listing: TGI of selected molecules

N#Cc1nc2c(S(=O)(=O)c3ccc(Cl)cc3)c(N)n(CCCN3CCOCC3)c2nc1C#N	23.6 µM
CN(C)C(=O)c1cnc2oc3ccc(O)cc3c2c1-c1ccccc1	> 25 µM
COc1ccc(CC2(Cc3ccc(OC)cc3)CCOC2=O)cc1	> 100 µM

Using the record for C#CC1(O)CCCCCCCCC2(CCCCCCCC1)OCCO2 , state its measured TGI.
37 µM

Quickly give me recorded TGI for COC(=O)CC1c2ccccc2N2C(=O)Cc3c([nH]c4ccccc34)C12 (stereo not drawn)
> 100 µM

====

- Tested on: MDA-MB-435
- assay_remarks: NCI tumour cell line growth inhibition, 48 h
outcome_measure: TGI

O=C(c1ccccc1)N1C(=S)N(c2ccccn2)C(=Nc2ccccc2)C1=Nc1ccccc1	> 58 µM

Supply TGI measured with MDA-MB-435 for CNC1(C(=O)O)CC1 .
> 100 µM

Provide TGI, tested on MDA-MB-435, for CCOC(=O)c1nc2ccc(C(F)(F)F)cc2nc1Oc1ccc(C(=O)OC)cc1 .
> 100 µM

Under MDA-MB-435, report TGI for N#Cc1c(O)c(/C=N/c2ncccn2)c(=O)n2c1[nH]c1ccccc12
> 100 µM

====

- Tested on: KM12 colon
- assay_remarks: NCI tumour cell line growth inhibition, 48 h
outcome_measure: TGI

CC1(C)[C@@H]2C[C@H]1c1cnc(-c3ccccn3)cc1C2CCCCC[C@@H]1c2cc(-c3ccccn3)ncc2[C@@H]2C[C@H]1C2(C)C (stereo partly drawn)	> 100 µM
Cc1cnc2[nH]c(-c3ccc4ccccc4c3)cc(=O)c2c1	> 100 µM
COC(=O)Nc1nc2ccc(Oc3cccc(NC(=O)Nc4cc(C(F)(F)F)ccc4F)c3)cc2[nH]1	> 25 µM
c1ccc(CSC2(SCc3ccccc3)CCCCC2)cc1	> 10 µM
Cc1nn(-c2ccc([N+](=O)[O-])cc2)c2ncnc(N/N=C/c3ccccc3O)c12	> 100 µM

Tell us which TGI value is on record for COc1ccc(-c2c(C#N)c(S)n(NS(=O)(=O)c3ccccc3)c(=O)c2C#N)cc1
> 100 µM

Return value of TGI for input O=C(OCCNC(=O)N1CC1)OCCNC(=O)N1CC1 , no commentary.
> 10 µM

Return TGI (reported value) for this compound: c1ccc([I+]c2ccccc2)cc1
> 100 µM

====

- System: SW-620 colon
- assay_remarks: NCI tumour cell line growth inhibition, 48 h; in the data active means GI50 below about 0.43 µM; inactive means the rest
Choose one outcome from this list and give only that: YES = active, NO = inactive

Below are worked cases with known answers.
Cc1[nH]c2ccc(F)cc2c1-c1nc2c3cccnc3c3ncccc3c2[nH]1	YES
COc1ccc(C2=C(c3ccc(OC)c(OC)c3)C(=O)N3CCCC3C2)cc1 (stereo unspecified)	NO
Cc1cn2c(/C=C3/C(=O)Nc4ccc(O)cc43)c(C)nc2s1	NO
O=C1c2ccc3c4c(ccc(c24)C(=O)N1CCCNCc1ccccc1Cl)C(=O)N(CCCNCc1ccccc1Cl)C3=O	YES
COc1ccc(C(=O)/C=C/c2cccc(Nc3ccnc4cc(Cl)ccc34)c2)cc1	NO

Moving on to the next compound.
# outcome recorded in this test, key = CCOC(=O)C1CCCCN1C(=O)c1ccc(Nc2cnc3cc(C(F)(F)F)ccc3n2)cc1 (stereo unspecified)
NO

====

- Test system: MCF7 breast
- assay_remarks: NCI tumour cell line growth inhibition, 48 h
Where a SMILES comes first, the peptide text is derived from it. [ ]: non-standard residue; d: D form.
TGI: recorded values

Examples from the recorded data:
COC(=O)c1cc2ccccc2c2c3c(ccc12)OCO3	> 1000 µM
CN(C)Cc1cc(N=Nc2ccc(Cl)cc2)cc(CN(C)C)c1O	21.3 µM
COc1cc([N+](=O)[O-])c(OC)cc1-c1nc2sccn2c1/C=N/N=C(N)N	> 100 µM
Cc1cc(S(=O)(=O)/N=C(\[N-]S(=O)(=O)c2cc(Cl)sc2Cl)[n+]2ccc(N(C)C)cc2)c(S)cc1Cl	> 100 µM
COc1ccc(NC(=S)c2ccoc2C)cc1CC(=O)OC(C)C	51.5 µM

Please report TGI for the following compound: N#Cc1nc2c(S(=O)(=O)c3ccc(Cl)cc3)c(N)n(CCCN3CCOCC3)c2nc1C#N
16.5 µM

Return TGI (reported value) for this compound: Cc1ccc(C(=O)NC2CCC2)cc1-c1ccc(C(=O)NCC2CC2)cc1
> 25 µM

Specify measured TGI for CC(=O)OC(Cc1c(O)c2c(C)cccc2oc1=O)C(C)(C)O (centres undefined) .
> 100 µM

For CC(C)C[C@H](NC(=O)[C@H](CC(C)C)NC(=O)[C@@H](Cc1c[nH]c2ccccc12)NC(=O)[C@H](Cc1ccccc1)NC(=O)[C@@H](Cc1c[nH]c2ccccc12)NC(=O)[C@H](CCC(N)=O)NC(=O)[C@H](CCC(N)=O)NC(=O)[C@H]1CCCN1C(=O)[C@@H](N)CCCCN)C(N)=O (H-K[dP]QQ[dW]F[dW]LL-NH2) , write its TGI.
> 100 µM

====

- Test system: HCT-15 colon
- assay_remarks: NCI tumour cell line growth inhibition, 48 h
outcome_measure: TGI (µM)
Lab book: enter the figure in µM, no units written.

COc1ccc(C2=CC(c3ccc(OC)cc3Br)N3C=CSC3=N2)cc1 (stereo not given)	3.41

We now examine a further compound.
Note down TGI recorded for Cc1ccc(N/C(SCc2ccccc2)=C(\C(Cl)=C(Cl)Cl)[N+](=O)[O-])c(C)c1
34.9

These measurements were taken from PubChem BioAssay (NCI).
